Values were extracted from patent US8859466B2.

Assay name: Determination of the logP values by HPLC on a reverse-phase column (C 18)
Format: physicochemical
Study conditions: HPLC on a reverse-phase column (C 18); separated α/β isomers
Reported property: log P*

>  <Compound>
Cc1ccc(-c2ccc(F)cc2)c(C)c1C1=C(O)C2(CCC3(CCCO3)CC2)OC1=O (centres unmarked) [Example I-2-a-47]

>  <Reported property>
log P*

>  <Value measured>
3.20

$$$$

(A) Cc1ccc(-c2ccc(Cl)c(Cl)c2)cc1C1=C(O)C2(CCC3(CCCO3)CC2)OC1=O (centres unmarked) [Example I-2-a-13]
(B) Cc1cc(C2=C(O)C3(CCC4(CCCO4)CC3)OC2=O)c(Cl)cc1Cl (single isomer, unassigned) [Example I-2-a-40]
Hi team, can someone confirm which has the larger log P*: A or B ? Thanks. Indicate your choice by writing its label. A

* * *

Assay name: Determination of the logP values by HPLC on a reverse-phase column (C 18)
Type: physicochemical
Study conditions: HPLC on a reverse-phase column (C 18); separated α/β isomers
Description: Determination of the logP Values The logP values given in the table were determined in accordance with EEC Directive 79/831 Annex V.A8 by HPLC (high performance liquid chromatography) on a reverse-phase column (C 18). Temperature: 55° C. Mobile phases for the determination in the acidic range (pH 3.4): Mobile phase A: acetonitrile+1 ml of formic acid/liter. Mobile phase B: water+0.9 ml of formic acid/liter. […]
Reported property: log P*

Worked set:
>  <Compound>
Cc1cc(C)c(-c2ccc(Cl)cc2)cc1C1=C(O)C2(CCC3(CCCO3)CC2)OC1=O (stereo not shown) [Example I-2-a-27]

>  <Value measured>
3.60

$$$$
>  <Compound>
CCc1cc(Cl)cc(CC)c1C1=C(O)C2(CCC3(CCCO3)CC2)OC1=O (single isomer, unassigned) [Example I-2-a-9]

>  <Value measured>
3.62

$$$$
>  <Compound>
Cc1cc(C2=C(O)C3(CCC4(CCCO4)CC3)OC2=O)c(C)cc1Br (single isomer, unassigned) [Example I-2-a-30]

>  <Value measured>
3.28

$$$$
>  <Compound>
Cc1ccc(-c2ccc(F)cc2)cc1C1=C(O)C2(CCC3(CCCO3)CC2)OC1=O (stereo not shown) [Example I-2-a-23]

>  <Value measured>
3.5

$$$$
>  <Compound>
COc1cccc(C)c1C1=C(O)C2(CCC3(CCCO3)CC2)OC1=O (single isomer, unassigned) [Example I-2-a-34]

>  <Value measured>
2.05

$$$$

(1) Cc1ccc(C)c(C2=C(O)C3(CCC4(CCCO4)CC3)OC2=O)c1 (single isomer, unassigned) [Example I-2-a-3]
(2) CCc1cc(Br)cc(C)c1C1=C(O)C2(CCC3(CCCO3)CC2)OC1=O (single isomer, unassigned) [Example I-2-a-6]
Hi team, can someone confirm which has the larger log P*: 1 or 2 ? Thanks. Indicate your choice by writing its label. 2
(2: 3.44, 1: 2.29)

* * *

Assay name: Determination of the logP values by HPLC on a reverse-phase column (C 18)
Assay type: physicochemical
Study conditions: HPLC on a reverse-phase column (C 18); separated α/β isomers
Reported property: log P*

>  <Molecule>
Cc1cc(C)c(-c2ccc(Cl)cc2)c(C)c1C1=C(O)C2(CCC3(CCCO3)CC2)OC1=O (single isomer, unassigned) [Example I-2-a-43]

>  <log P*>
4.32

$$$$
>  <Molecule>
O=C1OC2(CCC3(CCCO3)CC2)C(O)=C1c1cc(-c2ccc(F)cc2)ccc1Cl (centres unmarked) [Example I-2-a-51]

>  <log P*>
3.42

$$$$
>  <Molecule>
CCc1cc(C)cc(CC)c1C1=C(O)C2(CCC3(CCCO3)CC2)OC1=O (single isomer, unassigned) [Example I-2-a-17]

>  <log P*>
3.47

$$$$
>  <Molecule>
O=C1OC2(CCC3(CCCO3)CC2)C(O)=C1c1cc(-c2ccc(F)cc2)ccc1Cl (centres unmarked) [Example I-2-a-50]

>  <log P*>
2.91

$$$$
>  <Molecule>
CCc1cc(C)cc(C)c1C1=C(O)C2(CCC3(CCCO3)CC2)OC1=O (single isomer, unassigned) [Example I-2-a-15]

>  <log P*>
3.21

$$$$
>  <Molecule>
Cc1cc(C2=C(O)C3(CCC4(CCCO4)CC3)OC2=O)c(Cl)cc1Cl (single isomer, unassigned) [Example I-2-a-41]

>  <log P*>
3.14

$$$$
>  <Molecule>
CCc1cc(Cl)c(C2=C(O)C3(CCC4(CCCO4)CC3)OC2=O)c(Br)c1 (single isomer, unassigned) [Example I-2-a-39]

>  <log P*>
3.26

$$$$
>  <Molecule>
Cc1ccc(-c2ccc(Cl)cc2)c(C)c1C1=C(O)C2(CCC3(CCCO3)CC2)OC1=O (centres unmarked) [Example I-2-a-19]

>  <log P*>
4.06

$$$$
>  <Molecule>
Cc1cc(C)c(C2=C(O)C3(CCC4(CCCO4)CC3)OC2=O)cc1C (single isomer, unassigned) [Example I-2-a-49]

>  <log P*>
2.54

$$$$
>  <Molecule>
CCc1cc(Br)cc(C)c1C1=C(O)C2(CCC3(CCCO3)CC2)OC1=O (single isomer, unassigned) [Example I-2-a-7]

>  <log P*>
2.94

$$$$
>  <Molecule>
COc1cccc(C)c1C1=C(O)C2(CCC3(CCCO3)CC2)OC1=O (single isomer, unassigned) [Example I-2-a-35]

>  <log P*>
2.42

$$$$
>  <Molecule>
Cc1ccc(-c2ccc(Cl)cc2)cc1C1=C(O)C2(CCC3(CCCO3)CC2)OC1=O (centres unmarked) [Example I-2-a-24]

>  <log P*>
3.32

$$$$
>  <Molecule>
Cc1cc(C)c(C2=C(O)C3(CCC4(CCCO4)CC3)OC2=O)c(C)c1 (single isomer, unassigned) [Example I-2-a-4]

>  <log P*>
2.52

$$$$
>  <Molecule>
Cc1ccc(-c2ccc(F)cc2)cc1C1=C(O)C2(CCC3(CCCO3)CC2)OC1=O (centres unmarked) [Example I-2-a-22]

>  <log P*>
3.0

$$$$

* * *

Assay name: Determination of the logP values by HPLC on a reverse-phase column (C 18)
Format: physicochemical
Study conditions: HPLC on a reverse-phase column (C 18); separated α/β isomers
Reported property: log P*

>  <Molecule>
COc1cc(C)cc(C)c1C1=C(O)C2(CCC3(CCCO3)CC2)OC1=O (single isomer, unassigned) [Example I-2-a-10]

>  <log P*>
2.28

$$$$
>  <Molecule>
CCc1cc(Br)cc(Cl)c1C1=C(O)C2(CCC3(CCCO3)CC2)OC1=O (single isomer, unassigned) [Example I-2-a-36]

>  <log P*>
2.77

$$$$
>  <Molecule>
Cc1ccc(-c2ccc(Cl)cc2)c(C)c1C1=C(O)C2(CCC3(CCCO3)CC2)OC1=O (centres unmarked) [Example I-2-a-18]

>  <log P*>
3.52

$$$$
>  <Molecule>
Cc1cc(C)c(-c2ccc(Cl)cc2)cc1C1=C(O)C2(CCC3(CCCO3)CC2)OC1=O (centres unmarked) [Example I-2-a-26]

>  <log P*>
4.15

$$$$
>  <Molecule>
O=C1OC2(CCC3(CCCO3)CC2)C(O)=C1c1cc(-c2ccc(Cl)cc2)ccc1Cl (centres unmarked) [Example I-2-a-21]

>  <log P*>
3.79

$$$$
>  <Molecule>
CCc1cc(Br)cc(Cl)c1C1=C(O)C2(CCC3(CCCO3)CC2)OC1=O (single isomer, unassigned) [Example I-2-a-37]

>  <log P*>
3.40

$$$$
>  <Molecule>
Cc1ccc(-c2ccc(Cl)cc2)cc1C1=C(O)C2(CCC3(CCCO3)CC2)OC1=O (centres unmarked) [Example I-2-a-25]

>  <log P*>
3.87

$$$$
>  <Molecule>
CCc1cc(C)cc(Br)c1C1=C(O)C2(CCC3(CCCO3)CC2)OC1=O (single isomer, unassigned)

>  <log P*>
2.73

$$$$
>  <Molecule>
Cc1cc(C)c(C2=C(O)C3(CCC4(CCCO4)CC3)OC2=O)c(Br)c1 (single isomer, unassigned) [Example I-2-a-32]

>  <log P*>
2.48

$$$$
>  <Molecule>
Cc1cc(C)c(C2=C(O)C3(CCC4(CCCO4)CC3)OC2=O)cc1C (single isomer, unassigned) [Example I-2-a-48]

>  <log P*>
2.99

$$$$
>  <Molecule>
Cc1cc(C2=C(O)C3(CCC4(CCCO4)CC3)OC2=O)c(C)cc1Br (single isomer, unassigned) [Example I-2-a-31]

>  <log P*>
2.77

$$$$

* * *

Assay name: Determination of the logP values by HPLC on a reverse-phase column (C 18)
Format: physicochemical
Study conditions: HPLC on a reverse-phase column (C 18); separated α/β isomers
Reported property: log P*

>  <Compound>
CCc1cc(Br)cc(C)c1C1=C(O)C2(CCC3(CCCO3)CC2)OC1=O (single isomer, unassigned) [Example I-2-a-29]

>  <log P*>
3.22

$$$$
>  <Compound>
CCc1cc(C)cc(CC)c1C1=C(O)C2(CCC3(CCCO3)CC2)OC1=O (single isomer, unassigned) [Example I-2-a-16]

>  <log P*>
2.99

$$$$
>  <Compound>
CCc1cc(Cl)cc(C)c1C1=C(O)C2(CCC3(CCCO3)CC2)OC1=O (single isomer, unassigned) [Example I-2-a-45]

>  <log P*>
3.34

$$$$
>  <Compound>
COc1cc(C)cc(C)c1C1=C(O)C2(CCC3(CCCO3)CC2)OC1=O (single isomer, unassigned) [Example I-2-a-11]

>  <log P*>
2.66

$$$$
>  <Compound>
Cc1ccc(-c2ccc(Cl)c(Cl)c2)cc1C1=C(O)C2(CCC3(CCCO3)CC2)OC1=O (stereo not drawn) [Example I-2-a-12]

>  <log P*>
3.74

$$$$
>  <Compound>
O=C1OC2(CCC3(CCCO3)CC2)C(O)=C1c1cc(-c2ccc(Cl)cc2)ccc1Cl (stereo not drawn) [Example I-2-a-20]

>  <log P*>
3.25

$$$$
>  <Compound>
Cc1ccc(-c2ccc(F)cc2)c(C)c1C1=C(O)C2(CCC3(CCCO3)CC2)OC1=O (stereo not drawn) [Example I-2-a-46]

>  <log P*>
3.69

$$$$
>  <Compound>
Cc1cc(C)c(C2=C(O)C3(CCC4(CCCO4)CC3)OC2=O)c(C)c1 (single isomer, unassigned) [Example I-2-a-5]

>  <log P*>
3.00

$$$$
>  <Compound>
CCc1cc(Cl)cc(CC)c1C1=C(O)C2(CCC3(CCCO3)CC2)OC1=O (single isomer, unassigned) [Example I-2-a-8]

>  <log P*>
3.09

$$$$
